Data credit: paper PMC6687188

Measurement record for recombinant CpLDH protein (Cryptosporidium parvum, UniProt Q9GT92, F198L/K295E/R251K); quantity recorded: MEAN CpLDH INHIBITION (%).
Your answer is read as %, so omit the unit and give the number.

// MEAN CpLDH INHIBITION (%) lookup, molecule = COc1cc(O)c2c(c1)C(=O)c1cc3c(c(O)c1C2=O)[C@@H](O[C@@H]1O[C@@H](C)[C@H](O)[C@@H](O)[C@H]1OC)[C@H](OC)[C@](C)(O)C3=O [NSC93419] , result: -51.14

Input Nc1ccc(N)c2c1C(=O)c1ccccc1C2=O [NSC7833] . Output MEAN CpLDH INHIBITION (%): -11.00

get_value(item= COc1ccc(C[C@@H]2NC[C@@H](O)[C@@H]2OC(C)=O)cc1.Cl [NSC147340] , readout=MEAN CpLDH INHIBITION (%)) returns -13.68

// MEAN CpLDH INHIBITION (%) lookup, molecule = C[C@H]1CCC/C=C/[C@@H]2C[C@H](O)C[C@H]2[C@H](O)/C=C/C(=O)O1 [NSC89671] , result: -22.45

# MEAN CpLDH INHIBITION (%) (molecule: C=C(Cl)C(Cl)(CBr)CCC(Br)C(C)(C)Cl (centres unmarked) [NSC662825] ) is -7.35

Reported MEAN CpLDH INHIBITION (%) for CSCC(CO)NC(=O)/C=C/c1c(C)[nH]c(=O)[nH]c1=O (centres unmarked) [NSC233872] was -35.08

Sample COc1cccc2c1cc([N+](=O)[O-])c1c(C(=O)O)cc3c(c12)OCO3 [NSC11926] ; MEAN CpLDH INHIBITION (%) observed: -19.30

# molecule Cc1c2cnccc2c(C)c2c1c1ccccc1n2CCOC(=O)c1ccccc1 [NSC163443] ; its MEAN CpLDH INHIBITION (%) = -14.23
